The entries below are paired with their reported IC50.
TARGET_SYSTEM: active p38 alpha enzyme (Upstate Biotechnology) (Homo sapiens, UniProt Q16539)
Construct: purchased Upstate Biotechnology
Sequence (Q16539 whole entry): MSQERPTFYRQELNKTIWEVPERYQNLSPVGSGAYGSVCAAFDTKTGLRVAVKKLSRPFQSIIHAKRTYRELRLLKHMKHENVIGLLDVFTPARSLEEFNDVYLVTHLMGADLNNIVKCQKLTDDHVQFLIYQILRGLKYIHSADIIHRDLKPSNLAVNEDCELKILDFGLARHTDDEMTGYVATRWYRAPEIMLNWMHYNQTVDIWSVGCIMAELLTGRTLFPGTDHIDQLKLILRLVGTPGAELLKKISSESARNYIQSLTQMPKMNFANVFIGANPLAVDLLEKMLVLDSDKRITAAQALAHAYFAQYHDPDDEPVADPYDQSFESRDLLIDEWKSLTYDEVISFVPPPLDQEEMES
ASSAY_EXPLANATION: p38α biochemical assay (ATP turnover, luminescent detection, Cambrex PKlight)
MEASUREMENT_CONTEXT: p38α kinase; Table 1 Biological Activity
OBSERVATION_TYPE: IC50

1) CC(C)NC(=O)c1csc(-c2c(-c3ccc(F)cc3)n[nH]c2C2CCN(C(=O)/C=C/c3ccc4c(c3)OCO4)CC2)n1; > 1000 nM
2) O=C(NCCc1c[nH]c2ccccc12)c1csc(-c2c(-c3ccc(F)cc3)n[nH]c2C2CCNCC2)n1; > 1000 nM
3) CC(C)NC(=O)c1csc(-c2c(-c3ccc(F)cc3)noc2CNC2CCN(Cc3ccccc3)CC2)n1; > 1000 nM
4) Cc1nc(-c2ccc(F)cc2)c(-c2nc(C(=O)NCC3CCCO3)cs2)s1 (stereo not drawn); ≤ 1000 nM
5) Cc1nc(-c2ccc(F)cc2)c(-c2nc(C(=O)Nc3ccccc3-c3ccccc3)cs2)s1; ≤ 1000 nM
6) CCN(C(=O)c1csc(-c2sc(C)nc2-c2ccc(F)cc2)n1)C(Cc1ccccc1)c1ccco1 (stereo not drawn); > 1000 nM
7) COc1cc(CN(C)C(=O)c2csc(-c3sc(C)nc3-c3ccc(F)cc3)n2)cc(OC)c1OC; ≤ 1000 nM
8) CC(C)NC(=O)c1csc(-c2c(-c3ccc(F)cc3)noc2CN(C)CCO)n1; ≤ 1000 nM
9) Cc1ccc(N2CCN(Cc3onc(-c4ccc(F)cc4)c3-c3nc(C(=O)NC(C)C)cs3)CC2)c(C)c1; > 1000 nM
10) COc1ccccc1CC(=O)N1CCC(c2[nH]nc(-c3ccc(F)cc3)c2-c2nc(C(=O)NC(C)C)cs2)CC1; > 1000 nM
11) CC(C)NC(=O)c1csc(-c2[nH][nH]c(=O)c2-c2ccc(F)cc2)n1; ≤ 1000 nM
12) CC(C)NC(=O)c1csc(-c2c(-c3ccc(F)cc3)noc2CNCc2ccccn2)n1; > 1000 nM
13) Cc1nc(-c2ccc(F)cc2)c(-c2nc(C(=O)N3CCCC3CO)cs2)s1 (stereo not drawn); ≤ 1000 nM
14) CC(C)NC(=O)c1csc(-c2c(-c3ccc(F)cc3)noc2CNCc2ccccc2F)n1; > 1000 nM
15) CC(C)NC(=O)c1csc(-c2c(-c3ccc(F)cc3)n[nH]c2C2CCN(C(=O)COc3ccccc3C=O)CC2)n1; > 1000 nM
16) CC(C)NC(=O)c1csc(-c2c(-c3ccc(F)cc3)noc2CNCCC2CCCN2C)n1 (stereo not drawn); > 1000 nM
17) CC(C)NC(=O)c1csc(-c2oc(CN3CCC(O)(c4ccc(Cl)cc4)CC3)nc2-c2ccc(F)cc2)n1; > 1000 nM
18) CC(C)NC(=O)c1csc(-c2c(-c3ccc(F)cc3)n[nH]c2C2CCN(C(=O)c3ccc(F)c([N+](=O)[O-])c3)CC2)n1; > 1000 nM
19) Cc1nc(-c2ccc(F)cc2)c(-c2nc(C(=O)NCCNC(=O)OC(C)(C)C)cs2)s1; ≤ 1000 nM
20) CC(C)NC(=O)c1csc(-c2c(-c3ccc(F)cc3)n[nH]c2C2CCN(C(=O)C(F)(F)F)CC2)n1; ≤ 1000 nM
21) O=C(NCC1CCCCC1)c1csc(-c2c(-c3ccc(F)cc3)n[nH]c2C2CCNCC2)n1; > 1000 nM
22) CCCN(CCC)C(=O)c1csc(-c2sc(C)nc2-c2ccc(F)cc2)n1; > 1000 nM
23) Cc1ccc(C(=O)CCC(=O)N2CCC(c3[nH]nc(-c4ccc(F)cc4)c3-c3nc(C(=O)NC(C)C)cs3)CC2)cc1; > 1000 nM
24) CC(C)NC(=O)c1csc(-c2c(-c3ccc(F)cc3)noc2CNC(=O)C(C)c2ccc(-c3ccccc3)c(F)c2)n1 (stereo not drawn); > 1000 nM
25) Cc1nc(-c2ccc(F)cc2)c(-c2nc(C(=O)N3CCN(c4ccccc4Cl)CC3)cs2)s1; > 1000 nM
26) CC(=O)c1ccc(NCc2onc(-c3ccc(F)cc3)c2-c2nc(C(=O)NC(C)C)cs2)cc1; > 1000 nM
27) CC(C)NC(=O)c1csc(-c2c(-c3ccc(F)cc3)n[nH]c2C2CCN(C(=O)C3=CC=CC(Cl)C=C3[N+](=O)[O-])CC2)n1 (stereo not drawn); > 1000 nM
28) Cc1nc(-c2ccc(F)cc2)c(-c2nc(C(=O)N3Cc4ccccc4C3)cs2)s1; > 1000 nM
29) CC(C)NC(=O)c1csc(-c2c(-c3ccc(F)cc3)n[nH]c2C2CCN(C(=O)C(C(C)C)N(C)C(=O)OC(C)(C)C)CC2)n1 (stereo not drawn); ≤ 1000 nM
30) CC(C)NC(=O)c1csc(-c2c(-c3ccc(F)cc3)noc2CNC(CO)C(C)C)n1 (stereo not drawn); > 1000 nM
